# MEASUREMENT TARGET: NKp30 on human NK cells (human) (UniProt O14931)
# Sequence (O14931 19-201): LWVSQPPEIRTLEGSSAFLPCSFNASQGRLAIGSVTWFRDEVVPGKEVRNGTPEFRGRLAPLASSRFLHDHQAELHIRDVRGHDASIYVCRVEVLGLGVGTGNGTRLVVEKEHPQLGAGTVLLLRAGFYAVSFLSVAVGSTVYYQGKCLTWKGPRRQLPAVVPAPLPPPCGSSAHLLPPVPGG
# METHOD: cell-based or functional assay
OBSERVABLE: A549 EC50 with NK cells (pM)
Output spec: scalar in pM, unitless text.

Some solved cases for reference:
ΔB7-H6_S3#18-SEED-PGLALA (bispecific antibody, part only; not given: SEED Fc chains and hu225 Fab, part only) chain, part: DLKVEMMAGGTQITPLNDNVTIFCNIFYSQPLNITYMGITWFWKSLTFDKEVKVFEFWGDHQEAFRPGAIVSPWRLKSGDASLRLPGIQLEEAGEYRCEVVVTPYKAQGTVQLEVVASPAS | 42.5
ΔB7-H6_S3#24-SEED-PGLALA (bispecific antibody, part only; not given: SEED Fc chains and hu225 Fab, part only) chain, part: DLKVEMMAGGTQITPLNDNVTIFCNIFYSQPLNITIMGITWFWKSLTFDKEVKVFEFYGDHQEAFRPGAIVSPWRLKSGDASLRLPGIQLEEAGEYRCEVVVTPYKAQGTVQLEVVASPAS | 35.2
ΔB7-H6_S3#15-SEED-PGLALA (bispecific antibody, part only; not given: SEED Fc chains and hu225 Fab, part only) chain, part: DLKVEMMAGGTQITPLNDNVTIFCNIFYSQPLNITIMGITWFWKSLTFDKEVKVFEFWGDHQEAFRPGAIVSPWRLKSGDASLRLPGIQLEEAGEYRCEVVVTPYKAQGTVQLEVVASPAS | 31.3

# return recorded A549 EC50 with NK cells (pM) for input ΔB7-H6_S3#25-SEED-PGLALA (bispecific antibody, part only; not given: SEED Fc chains and hu225 Fab, part only) chain, part: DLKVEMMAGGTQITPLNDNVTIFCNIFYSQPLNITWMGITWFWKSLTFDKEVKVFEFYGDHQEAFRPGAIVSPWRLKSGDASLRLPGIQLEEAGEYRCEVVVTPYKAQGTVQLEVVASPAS
34.6
